Molecular target: cynomolgus monkey PCSK9 (cynomolgus monkey, UniProt A0A7N9D9N8 150-747)
Assay: FRET, competitor EGFA peptide
API: label(entry) gives True if the entry's EC50 is strictly smaller than 20 nM; on equality or larger values it gives False.

// query Please state whether EC50 is below 20 nM for 2382F05 (designed binder, Anti-PCSK9 Adnectin, His6-tagged) MGVSDVPRDLEVVAATPTSLLISWDAPAEAGKHYGYYRITYGETGGNSPVQEFTVPVSKGTATISGLKPGVDYTITVYAVEFDFPGAGYYHRPISINYRTEIDKPSQHHHHHH
// result True

// query Please state whether EC50 is below 20 nM for 2382B10 (designed binder, Anti-PCSK9 Adnectin, His6-tagged) MGVSDVPRDLEVVAATPTSLLISWDAPADAYGYYRITYGETGGNSPVQEFTVPSSKGTATISGLKPGVDYTITVYAVEYDFPGSGYYHRPISINYRTEIDKPSQHHHHHH
// result True

// query Please state whether EC50 is below 20 nM for 1459D05 (designed binder, also called ATI000891; ATI-891) MGVSDVPRDLEVVAATPTSLLISWPPPSHGYGYYRITYGETGGNSPVQEFTVPPGKGTATISGLKPGVDYTITVYAVEYPYKHSGYYHRPISINYRTEIDKPSQHHHHHH
// result False

// query Please state whether EC50 is below 20 nM for 2382B09 (designed binder, Anti-PCSK9 Adnectin, His6-tagged) MGVSDVPRDLEVVAATPTSLLISWDAPADAYGYYRITYGETGGNSPVQEFTVPVSKGTATISGLKPGVDYTITVYAVEFDYPGSGYYHRPISINYRTEIDKPSQHHHHHH
// result False

// query Please state whether EC50 is below 20 nM for 2451H07 (designed binder, Anti-PCSK9 Adnectin, His6-tagged) MGITDVPRDLEVVAATPTSLLISWNPPDVNYGYYRITYGETGGNSPLQEFTVPVSKGTATISGLKPGVDYTITVYAVEYPYAHAGYYHRPISINYRTEIDKPSQHHHHHH
// result False

// query Please state whether EC50 is below 20 nM for 1784F03 (designed binder, Anti-PCSK9 Adnectin, His6-tagged) MGVSDVPRDLEVVAATPTSLLISWRPPIHAYGYYRITYGETGGNSPVQEFTVPIVEGTATISGLKPGVDYTITVYAVEYTFKHSGYYHRPISINYRTEIDKPSQHHHHHH
// result False

// query Please state whether EC50 is below 20 nM for 1923B02 (designed binder, Anti-PCSK9 Adnectin, His6-tagged) MGVSDVPRDLEVVAATPTSLLISWTPPPKGYGYYRITYGETGGNSPVQEFTVPVGEGTATISGLKPGVDYTITVYAVEYTYNGAGYYHRPISINYRTEIDKPSQHHHHHH
// result False

// query Please state whether EC50 is below 20 nM for 2451C06 (designed binder, Anti-PCSK9 Adnectin, His6-tagged) MGVSDVPRDLEVVAATPTSLLISWDAPAGAASYGYYRITYGETGGNSPVQEFTVPVSKGTATISGLKPGVDYTITVYAVEFPFPGAGYYHRPISINYRTEIDKPSQHHHHHH
// result False
